system: MIN6; assay: Induction of glucose-stimulated insulin secretion in mouse MIN6 cells after 2 hrs by ELISA; type: functional, cell-based; conditions: MIN6, 2 h
measurement.name: EC50

## Task For the molecule shown here, CC[C@]12C=CCN3CC[C@@]4(c5ccc(OC)cc5N(C)[C@H]4[C@@](O)(COC(=O)C(C)C)[C@@H]1OC(C)=O)[C@@H]32 , give the reported EC50.
## Result > 100 µM

## Task For the molecule shown here, CCCCO[C@@H]1[C@]2(CC)C=CCN3CC[C@@]4(c5ccc(OC)cc5N(C)[C@H]4[C@@]1(O)C(=O)OC)[C@@H]32 , give the reported EC50.
## Result > 100 µM

## Task For the molecule shown here, CC[C@]12C=CCN3CC[C@@]4(c5ccc(OC)cc5N(C)[C@H]4[C@@](O)(C(=O)OC)[C@@H]1O)[C@@H]32 , give the reported EC50.
## Result > 100 µM

## Task For the molecule shown here, CC[C@]12C=CCN3CC[C@@]4(c5ccc(OC)cc5N(C)[C@H]4[C@@](O)(C(=O)OC)[C@@H]1OC)[C@@H]32 , give the reported EC50.
## Result > 100 µM

## Task For the molecule shown here, CCOC[C@@]1(O)[C@H](OC(C)=O)[C@]2(CC)C=CCN3CC[C@@]4(c5ccc(OC)cc5N(C)[C@@H]14)[C@@H]32 , give the reported EC50.
## Result 11 µM

## Task For the molecule shown here, CC[C@]12C=CCN3CC[C@@]4(c5ccc(OC)cc5N(C)[C@H]4[C@@](O)(CNC(C)=O)[C@@H]1OC(C)=O)[C@@H]32 , give the reported EC50.
## Result 19.3 µM

## Task For the molecule shown here, CCCO[C@@H]1[C@]2(CC)C=CCN3CC[C@@]4(c5ccc(OC)cc5N(C)[C@H]4[C@@]1(O)C(=O)OC)[C@@H]32 , give the reported EC50.
## Result 64.3 µM

As a next step, examine the molecule that follows.
## Task For the molecule shown here, CCCCOC[C@@]1(O)[C@H](OC(C)=O)[C@]2(CC)C=CCN3CC[C@@]4(c5ccc(OC)cc5N(C)[C@@H]14)[C@@H]32 , give the reported EC50.
## Result > 100 µM
